Experiment Description: PK analysis of 8M2D in transgenic mice (APPSWE), plasma
Stated Conditions: mouse, in vivo, sc, 10 mg/kg, Day 13, 10 mg/kg, read-out: Cmax
Square brackets hold non-standard residues; d marks the D form. Peptide text beside a SMILES is read from it.
Readout Label: Cmax (ng/mL)
I only need the number, in ng/mL, no unit after it.

Fill in: Cmax of CC(=O)N[C@H](CC(=O)O)C(=O)N[C@@H](CCC(=O)O)C(=O)N[C@@H](CCC(=O)O)C(=O)N[C@@H](CCC(=O)O)C(=O)N[C@@H](CC(=O)O)C(=O)N[C@@H](CCC(=O)O)C(=O)N[C@@H](CCC(=O)O)C(=O)N[C@@H](CC(C)C)C(N)=O [8M2D, Ac-dEEEDEEL-NH2] (Ac-[dD]EEEDEEL-NH2) is ___ 12400

###

Experiment Description: PK analysis of 8M2D in transgenic mice (APPSWE), plasma
Stated Conditions: mouse, in vivo, sc, 250 mg/kg, Day 1, Mean over the 10, 50 and 250 mg/kg doses (N 3), read-out: Cl/F, Mean
Square brackets hold non-standard residues; d marks the D form. Peptide text beside a SMILES is read from it.
Readout Label: CL/F (mL/min/kg)
Please state the figure in mL/min/kg; there is no need to write the unit.

Fill in: CL/F of CC(=O)N[C@H](CC(=O)O)C(=O)N[C@@H](CCC(=O)O)C(=O)N[C@@H](CCC(=O)O)C(=O)N[C@@H](CCC(=O)O)C(=O)N[C@@H](CC(=O)O)C(=O)N[C@@H](CCC(=O)O)C(=O)N[C@@H](CCC(=O)O)C(=O)N[C@@H](CC(C)C)C(N)=O [8M2D, Ac-dEEEDEEL-NH2] (Ac-[dD]EEEDEEL-NH2) is ___ 16.1

###

Experiment Description: PK analysis of 8M2D in transgenic mice (APPSWE), plasma
Stated Conditions: mouse, in vivo, sc, 250 mg/kg, Day 1, 250 mg/kg, read-out: AUClast
Square brackets hold non-standard residues; d marks the D form. Peptide text beside a SMILES is read from it.
Readout Label: AUC(0-t)
Could you write the number and then its unit?

Please look up its AUC(0-t): CC(=O)N[C@H](CC(=O)O)C(=O)N[C@@H](CCC(=O)O)C(=O)N[C@@H](CCC(=O)O)C(=O)N[C@@H](CCC(=O)O)C(=O)N[C@@H](CC(=O)O)C(=O)N[C@@H](CCC(=O)O)C(=O)N[C@@H](CCC(=O)O)C(=O)N[C@@H](CC(C)C)C(N)=O [8M2D, Ac-dEEEDEEL-NH2] (Ac-[dD]EEEDEEL-NH2) 176 µg·h/mL

###

Experiment Description: PK analysis of 8M2D in transgenic mice (APPSWE), plasma
Stated Conditions: mouse, in vivo, sc, 250 mg/kg, Day 13, Mean over the 10, 50 and 250 mg/kg doses (N 3), read-out: Cl/F, Mean
Square brackets hold non-standard residues; d marks the D form. Peptide text beside a SMILES is read from it.
Readout Label: CL/F (mL/min/kg)
Unit mL/min/kg implied. Number only.

Item CC(=O)N[C@H](CC(=O)O)C(=O)N[C@@H](CCC(=O)O)C(=O)N[C@@H](CCC(=O)O)C(=O)N[C@@H](CCC(=O)O)C(=O)N[C@@H](CC(=O)O)C(=O)N[C@@H](CCC(=O)O)C(=O)N[C@@H](CCC(=O)O)C(=O)N[C@@H](CC(C)C)C(N)=O [8M2D, Ac-dEEEDEEL-NH2] (Ac-[dD]EEEDEEL-NH2) has what recorded CL/F? 13.5
